Values were extracted from patent US20240083886A1.

- test.system: GLP-1 Receptor (Homo sapiens)
- Sequence (P43220 24-463, species assumed): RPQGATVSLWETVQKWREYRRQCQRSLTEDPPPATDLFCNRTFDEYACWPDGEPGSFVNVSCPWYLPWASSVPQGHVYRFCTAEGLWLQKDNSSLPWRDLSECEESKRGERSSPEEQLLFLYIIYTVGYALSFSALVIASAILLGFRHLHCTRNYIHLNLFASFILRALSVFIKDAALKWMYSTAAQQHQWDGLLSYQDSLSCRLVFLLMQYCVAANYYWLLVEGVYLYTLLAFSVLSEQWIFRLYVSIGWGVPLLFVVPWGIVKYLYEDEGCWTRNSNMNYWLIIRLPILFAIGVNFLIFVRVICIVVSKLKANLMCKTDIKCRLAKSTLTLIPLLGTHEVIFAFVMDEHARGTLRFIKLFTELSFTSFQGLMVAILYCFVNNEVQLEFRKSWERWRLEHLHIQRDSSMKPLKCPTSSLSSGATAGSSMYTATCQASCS
- assay.procedure: GLP-1R agonist cAMP stimulation assay
- Type: cell-based
- recorded.conditions: HEK293/GLP1R/CRE-LUC cells, cAMP dynamic 2 Kit (Cisbio), 30 min incubation at 37° C.; read-out: EC50
pEC50: −log10 of the molar value.
property.name: pEC50

(a) O=c1[nH]c(-c2cc3nc(CN4CCC(Oc5nc(Cc6ccc(Cl)cc6F)ncc5F)CC4)n(C[C@@H]4CCO4)c3cn2)no1 [Compound 171a]
(b) CC(C)c1ccc(C(=O)Nc2ccc3c(c2)nc(CN2CCC(Oc4ccnc(Cc5ccc(Cl)cc5F)n4)CC2)n3C[C@@H]2CCO2)cn1 [Compound 116a]
Please state the entry with greater pEC50 among a and b . # reply format: chosen label
a

---

- test.system: GLP-1 Receptor (Homo sapiens)
- assay.procedure: GLP-1R agonist cAMP stimulation assay
- Format: cell-based
- recorded.conditions: HEK293/GLP1R/CRE-LUC cells, cAMP dynamic 2 Kit (Cisbio), 30 min incubation at 37° C.; read-out: EC50
property.name: EC50 (nM)

>>> assay_value("N#CC1(Cn2c(CN3CCC(Oc4ccnc(Cc5ccc(Cl)cc5)n4)CC3)nc3cc(-c4noc(=O)[nH]4)ccc32)CC1")
0.32
>>> assay_value("COC1(Cn2c(CN3CCC(Oc4cccc(Cc5ccc(Cl)cc5F)n4)CC3)nc3cc(-c4nnc(C(F)(F)F)[nH]4)ncc32)CC1")
4
>>> assay_value("O=C(Nc1ccc2c(c1)nc(CN1CCC(Oc3ccnc(Cc4ccc(Cl)cc4F)n3)CC1)n2C[C@@H]1CCO1)c1cccnc1 [Compound 111a]")
0.089
>>> assay_value("Clc1ccc(Cc2nccc(OC3CCN(Cc4nc5cc(-c6nnn[nH]6)ccc5n4C[C@@H]4CCO4)CC3)n2)cc1 [Compound 107a]")
0.2

(I) Clc1ccc(Cc2nccc(OC3CCN(Cc4nc5cc(-c6nnn[nH]6)ccc5n4Cc4cn[nH]c4)CC3)n2)cc1
(II) COc1ccc(C(=O)Nc2ccc3c(c2)nc(CN2CCC(Oc4ccnc(Cc5ccc(Cl)cc5F)n4)CC2)n3C[C@@H]2CCO2)cn1 [Compound 112a]
Could you determine which record has the numerically smaller EC50? Candidates: I and II # reply format: chosen label
I

---

- test.system: UniProt:P43220
- assay.procedure: GLP-1R agonist cAMP stimulation assay
- Assay type: cell-based
- recorded.conditions: HEK293/GLP1R/CRE-LUC cells, cAMP dynamic 2 Kit (Cisbio), 30 min incubation at 37° C.; read-out: EC50
pEC50: −log10 of the molar value.
property.name: pEC50

>>> assay_value("Fc1cnc(Cc2ccc(Cl)cc2)nc1O[C@H]1CC[C@H](Cc2nc3cc(-c4nnc(C(F)(F)F)[nH]4)ccc3n2C[C@@H]2CCO2)CC1 [Compound 173a]")
9.09

(1) Cc1cncc(C(=O)Nc2ccc3c(c2)nc(CN2CCC(Oc4ccnc(Cc5ccc(Cl)cc5)n4)CC2)n3C[C@@H]2CCO2)c1 [Compound 101a]
(2) Fc1cc(Cl)ccc1Cc1ncc(F)c(OC2CCN(Cc3nc4cc(-c5nnc(C(F)(F)F)[nH]5)nnc4n3C[C@@H]3CCO3)CC2)n1 [Compound 180a]
(3) Fc1cc(Cl)ccc1Cc1cccc(OC2CCN(Cc3nc4cc(-c5nnc(C(F)(F)F)[nH]5)ccc4n3C[C@@H]3CCO3)CC2)n1 [Compound 137a]
(4) Fc1cc(Cl)ccc1Cc1ccc(F)c(OC2CCN(Cc3nc4cc(-c5nnc(C(F)(F)F)[nH]5)ncc4n3C[C@@H]3CCO3)CC2)n1 [Compound 164a]
(5) Cc1ccncc1C(=O)Nc1ccc2c(c1)nc(CN1CCC(Oc3ccnc(Cc4ccc(Cl)cc4)n3)CC1)n2C[C@@H]1CCO1 [Compound 105a]
Your job: order these 5 records by pEC50, ascending. Thanks in advance for listing the labels in the requested order.
5, 2, 4, 3, 1
(5: 8.24, 2: 9.19, 4: 9.46, 3: 9.85, 1: 10.09)
